Target: cGAS (Homo sapiens)
Sequence (Q8N884 whole entry): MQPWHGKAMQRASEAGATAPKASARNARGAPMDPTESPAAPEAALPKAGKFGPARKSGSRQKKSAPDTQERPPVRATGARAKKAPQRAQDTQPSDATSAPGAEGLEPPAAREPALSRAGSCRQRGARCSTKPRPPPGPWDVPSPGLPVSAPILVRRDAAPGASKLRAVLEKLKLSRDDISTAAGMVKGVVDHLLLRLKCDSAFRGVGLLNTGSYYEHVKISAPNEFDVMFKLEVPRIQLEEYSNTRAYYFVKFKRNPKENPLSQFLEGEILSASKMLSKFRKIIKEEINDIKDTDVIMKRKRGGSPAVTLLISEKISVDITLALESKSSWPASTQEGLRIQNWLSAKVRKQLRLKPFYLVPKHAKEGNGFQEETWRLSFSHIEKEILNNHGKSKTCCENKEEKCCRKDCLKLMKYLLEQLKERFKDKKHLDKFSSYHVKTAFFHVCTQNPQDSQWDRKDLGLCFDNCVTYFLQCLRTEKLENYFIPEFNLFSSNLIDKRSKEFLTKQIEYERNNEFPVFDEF
Protocol: Cellular assay to measure cGAS activity (IFNb AlphaLISA in THP1 cells stimulated by RDG-Adenovirus-GFP)
Format: cell-based
Parameters: host or cells: THP1 cells differentiated with PMA and stimulated with RDG-Adenovirus-GFP
Measurement setup: PMA-differentiated THP1 cells, RDG-Adenovirus-GFP at 1000 MOI; inhibition of IFNb production as marker for cGAS activity
Kindly supply the reported pIC50 values for the records listed here.
Give bare numbers, as −log10 of the molar value.

Some compounds with recorded pIC50:
>>> reported_result("Cn1ncc(-c2cc(Cl)c(Cl)c3c2c2c(n3C)C(CC(C)(C)O)CNC(=O)C2)n1 (stereo not shown)")
5.49
>>> reported_result("Cn1c2c(c3c(OCC#N)cc(Cl)c(Cl)c31)CC(=O)NC[C@H]2CC(C)(C)O (single isomer, unassigned) [Example 111]")
6.64
>>> reported_result("C[C@@H]1CNC(=O)Cc2c1[nH]c1c(Cl)c(Cl)cc(-c3cnn(C)n3)c21 (single isomer, unassigned) [Example 146]")
6.52
>>> reported_result("CC1C(=O)NCCc2[nH]c3c(Cl)c(Cl)cc(N[C@H]4CCOC4)c3c21 (mixture of isomers)")
5.72
>>> reported_result("O=C1Cc2c([nH]c3c(Cl)c(Cl)cc(NCCCO)c23)CCN1")
5.34

Pending compound:
Query string: What value of pIC50 has been reported for the following compound? Cn1ncc(-c2cc(Cl)c(Cl)c3[nH]c4c(c23)CC(=O)NC[C@H]4CCO)n1 (single isomer, unassigned) [Example 8B]
Result string: 5.50
